Values from PubChem BioAssay (EPA / NIEHS)

System: rat Peripheral-type Benzodiazepine Receptor (PBR), Tspo (gene 24230)
Method: NVS_MP_rPBR: NovaScreen (NVS) Membrane Protein Assay for rat Peripheral-type Benzodiazepine Receptor (PBR) (AID 2283335)
Records with an inconclusive call do not appear. Activity calls are given as the source filed them. Rule for the calls: active = hit-call score of the fitted dose curve at least 0.9, where 1 is the maximum; inconclusive = response in the unintended direction; inactive = score below 0.9.
Output constraint: value belongs to active, inactive

A selection of reference data follows.
>  <Compound>
O=C1c2ccccc2C(=O)N1SC(Cl)(Cl)Cl

>  <Assigned class>
inactive

$$$$
>  <Compound>
CCN(CC)C(=O)SCc1ccc(Cl)cc1

>  <Assigned class>
active

$$$$
>  <Compound>
O=[N+]([O-])/N=C1\NCCN1Cc1ccc(Cl)nc1

>  <Assigned class>
inactive

$$$$
>  <Compound>
O=[N+]([O-])c1c(Cl)c(Cl)c(Cl)c(Cl)c1Cl

>  <Assigned class>
inactive

$$$$
>  <Compound>
CCC(C)(NC(=O)c1cc(Cl)c(C)c(Cl)c1)C(=O)CCl (centres undefined)

>  <Assigned class>
active

$$$$

Data request: Assay result, entry CCCN(CCC)c1c([N+](=O)[O-])cc(C(F)(F)F)cc1[N+](=O)[O-] — outcome?
Data returned: active

Data request: Please share the test call associated with COP(=S)(OC)Oc1ccc([N+](=O)[O-])cc1 .
Data returned: active

Data request: Write down the call the test reported for this compound. Item: O=S1OCC2C(CO1)C1(Cl)C(Cl)=C(Cl)C2(Cl)C1(Cl)Cl (centres undefined)
Data returned: inactive

Data request: Would you mind telling me which call this test gave COP(=S)(OC)Oc1ccc(SC)c(C)c1 ?
Data returned: active
